Listed here: items and their measured t1/2 MLM.
experiment: Stability in mouse liver microsomes; type: in vitro ADME

Example molecules with recorded t1/2 MLM:
O=C(CCOCCc1ccccc1)N[C@H]1CC[C@H](O)CC1	>2.42 h
O=C(COCCCc1ccccc1)N[C@H]1CC[C@H](O)CC1	>2.42 h
O=C(N[C@H]1CC[C@H](O)CC1)OCCCCc1ccccc1	0.815 h

Form field: reported t1/2 MLM of O=C(CCCOCc1ccccc1)N[C@H]1CC[C@H](O)CC1
>2.42 h

Form field: reported t1/2 MLM of O=C(CCCCOc1ccccc1)N[C@H]1CC[C@H](O)CC1
>2.42 h

----------
target: P-gp (Homo sapiens, UniProt P08183); assay: P-gp study, bidirectional permeability in NIH MDR1 cells; format: in vitro ADME; conditions: with GF120918 (concentration not stated), GF120918 +; read-out: Mean Recovery % B to A
Sequence (P08183 whole entry): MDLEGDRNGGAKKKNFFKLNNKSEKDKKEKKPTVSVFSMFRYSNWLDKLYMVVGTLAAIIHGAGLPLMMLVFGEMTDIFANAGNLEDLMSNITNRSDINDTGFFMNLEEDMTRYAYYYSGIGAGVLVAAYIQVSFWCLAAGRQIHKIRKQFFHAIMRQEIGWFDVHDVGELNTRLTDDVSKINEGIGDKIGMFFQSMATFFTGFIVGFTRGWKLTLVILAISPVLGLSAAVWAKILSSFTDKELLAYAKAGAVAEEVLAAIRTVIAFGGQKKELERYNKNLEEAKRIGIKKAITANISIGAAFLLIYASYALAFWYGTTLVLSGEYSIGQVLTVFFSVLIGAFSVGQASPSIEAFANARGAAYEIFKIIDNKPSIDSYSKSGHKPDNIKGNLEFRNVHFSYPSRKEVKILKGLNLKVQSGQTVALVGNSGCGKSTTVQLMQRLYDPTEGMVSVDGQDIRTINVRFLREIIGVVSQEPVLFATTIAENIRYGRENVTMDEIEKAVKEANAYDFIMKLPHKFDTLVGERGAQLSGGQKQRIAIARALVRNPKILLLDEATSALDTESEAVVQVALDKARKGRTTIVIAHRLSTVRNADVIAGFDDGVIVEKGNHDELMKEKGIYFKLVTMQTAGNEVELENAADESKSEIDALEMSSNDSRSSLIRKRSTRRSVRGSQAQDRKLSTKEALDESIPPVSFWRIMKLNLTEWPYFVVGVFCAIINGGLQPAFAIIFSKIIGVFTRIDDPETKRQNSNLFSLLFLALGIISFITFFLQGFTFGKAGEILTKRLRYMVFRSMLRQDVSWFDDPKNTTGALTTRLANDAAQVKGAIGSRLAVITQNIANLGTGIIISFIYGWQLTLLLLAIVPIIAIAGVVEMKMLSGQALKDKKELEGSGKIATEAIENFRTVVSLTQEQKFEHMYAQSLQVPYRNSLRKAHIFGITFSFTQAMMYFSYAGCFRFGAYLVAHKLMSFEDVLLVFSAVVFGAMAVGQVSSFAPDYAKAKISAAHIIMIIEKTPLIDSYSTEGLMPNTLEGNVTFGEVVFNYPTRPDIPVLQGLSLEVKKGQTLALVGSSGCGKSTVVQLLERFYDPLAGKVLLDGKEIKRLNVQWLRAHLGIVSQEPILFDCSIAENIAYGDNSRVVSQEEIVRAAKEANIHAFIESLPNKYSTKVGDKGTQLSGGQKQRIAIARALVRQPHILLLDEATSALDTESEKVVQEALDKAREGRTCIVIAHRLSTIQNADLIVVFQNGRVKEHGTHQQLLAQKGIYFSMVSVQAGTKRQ
QUANTITY: recovery (%)
// return numeric value only (unit: %, not printed)

Form field: reported recovery of C[C@H]1O[C@@H](O[C@H]2[C@@H](O)C[C@H](O[C@H]3[C@@H](O)C[C@H](O[C@H]4CC[C@@]5(C)[C@H](CC[C@@H]6[C@@H]5C[C@@H](O)[C@]5(C)[C@@H](C7=CC(=O)OC7)CC[C@]65O)C4)O[C@@H]3C)O[C@@H]2C)C[C@H](O)[C@@H]1O
99.3

----------
test: Stability in human liver microsomes; assay type: in vitro ADME
QUANTITY: t1/2 HLM

Example compounds with recorded t1/2 HLM:
O=C(N[C@H]1CC[C@H](O)CC1)OCCCCc1ccccc1 [Compound 25]	131.3 min
O=C(CCCOCc1ccccc1)N[C@H]1CC[C@H](O)CC1 [Compound 22]	>145 min
O=C(CCCCOc1ccccc1)N[C@H]1CC[C@H](O)CC1 [Compound 21]	>145 min
O=C(COCCCc1ccccc1)N[C@H]1CC[C@H](O)CC1 [Compound 24]	>145 min

We next turn to a different compound, shown below.
Form field: reported t1/2 HLM of O=C(CCOCCc1ccccc1)N[C@H]1CC[C@H](O)CC1 [Compound 23]
>145 min

----------
target: UniProt P08183; assay: P-gp study, bidirectional permeability in NIH MDR1 cells; type: in vitro ADME; details: MDCK-MDR1; GF120918 −
QUANTITY: Papp B→A (×10⁻⁶ cm/s)
// return numeric value only (unit: ×10⁻⁶ cm/s, not printed)

Form field: reported Papp B→A of C[C@H]1O[C@@H](O[C@H]2[C@@H](O)C[C@H](O[C@H]3[C@@H](O)C[C@H](O[C@H]4CC[C@@]5(C)[C@H](CC[C@@H]6[C@@H]5C[C@@H](O)[C@]5(C)[C@@H](C7=CC(=O)OC7)CC[C@]65O)C4)O[C@@H]3C)O[C@@H]2C)C[C@H](O)[C@@H]1O
13.4

----------
molecular target: P-gp (Homo sapiens, UniProt P08183); test: P-gp study, bidirectional permeability in NIH MDR1 cells; assay type: in vitro ADME; conditions: GF120918 −; read-out: Mean Recovery % A to B
Listed here: items and their measured recovery.
// return numeric value only (unit: %, not printed)

COCCc1ccc(OCC(O)CNC(C)C)cc1 (stereo not drawn) [Metoprolol]	105
C[C@H]1O[C@@H](O[C@H]2[C@@H](O)C[C@H](O[C@H]3[C@@H](O)C[C@H](O[C@H]4CC[C@@]5(C)[C@H](CC[C@@H]6[C@@H]5C[C@@H](O)[C@]5(C)[C@@H](C7=CC(=O)OC7)CC[C@]65O)C4)O[C@@H]3C)O[C@@H]2C)C[C@H](O)[C@@H]1O [Digoxin]	98.9

Form field: reported recovery of CC(C)(C)NCC(O)COc1cccc2c1CC(O)C(O)C2 (stereo not drawn) [Nadolol]
97.9
